The values you see were collected from the RNAGym collection of RNA variant scans (doi:10.7554/elife.80360).

B1: HDV Ribozyme (parent)
chain: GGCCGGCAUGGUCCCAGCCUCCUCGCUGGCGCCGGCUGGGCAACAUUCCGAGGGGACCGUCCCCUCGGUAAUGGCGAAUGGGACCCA

variants of: B1; assay: self-cleavage, relative activity (ratio to wild type); higher = more cleavage; co-transcriptional
Let's look at some variants and their measured self-cleavage.
assay_endpoint: self-cleavage

| mutation_label | quantitative_readout |
| --- | --- |
| A70U C84G | 0.541 |
| C4A U27C | 0 |
| G10U A87G | 0.704 |
| C57G A83G | 0.917 |
| A43C U79C | 0.113 |
| C18U G39C | 0.0405 |
| A42C C75A | 0.116 |
| U20C G38C | 0.0831 |
| G2C C36G | 0.26 |
| G40U A78G | 0.199 |
| G29U G52A | 0.168 |
| U47C C49A | 0.95 |
| G6C A87C | 0.312 |
| G52A G73U | 0.338 |
| A56G C61G | 1.12 |
| G28U G67U | 0.137 |
| G29A U47C | 0.16 |
| G28C U60A | 0.104 |
| C13U G80U | 0.185 |
| G6U A42C | 0 |
| A8G C66U | 1.14 |
| G5U G25C | 0 |
| C18A G52U | 0.237 |
| U60G G74C | 0.443 |
| C14U C32A | 0.101 |
| C63U U69C | 0.964 |
| C30A C64A | 0.536 |
| C14U A51G | 0.898 |
| C44A G59C | 0.796 |
| A16C G80C | 0.201 |
| C26U A45U | 0.77 |
| G35C G53A | 0.172 |
| A8G A16U | 0.895 |
| G76C C85A | 0.873 |
| C21A G73U | 0.0528 |
| A8G U65A | 0.89 |
| U46A G55C | 0.682 |
| G11U C84G | 0.489 |
| G6U G25C | 0.0426 |
| C44A G74U | 0.702 |
| G1A U65A | 0.0692 |
| A8C C36U | 0.712 |
| G2A G35C | 0.0326 |
| G5U U27A | 0.443 |
| G74A A87G | 0.339 |
| U23A A77U | 0.567 |
| G10C U27C | 0.942 |
| C19G U69A | 0 |
| U9A G40C | 0.325 |
| G17A A78U | 0.242 |
| C3G G6A | 0.0923 |
| G6U C63U | 0.763 |
| G2A C48G | 0.157 |
| A51U G59C | 0.755 |
| G34U G53A | 0.189 |
| C36U G74C | 0.253 |
| C61G G76A | 0.906 |
| A51U C66A | 0.764 |
| G55U U79G | 0.591 |
| C14G G73U | 0.0755 |
| U12G G68U | 0.779 |
| A42G G50U | 0.542 |
| G1U C41A | 0.496 |
| U37C G68A | 0.864 |
| C44U A78G | 0.242 |
| U12G A16U | 0.795 |
| G1A G73U | 0.0545 |
| G2U U27G | 0.0791 |
| G11A A16U | 0.723 |
| U47G U65A | 0.942 |
| G25A U37A | 0.213 |
| G10U G73C | 0.0831 |
| G10C A56U | 0.957 |
| G59U G76A | 0.925 |
| G11C C63U | 0.264 |
| G11A C30U | 0.0645 |
| U12C | 0.399 |
| C32U G54A | 0.891 |
| G17C C18A | 0 |
| U37A A83G | 0.115 |
| G10U G73U | 0.0639 |
| C4A G34U | 0.831 |
| G35A A43G | 0.185 |
| C36U G76A | 0.697 |
| C49G C58A | 0.764 |
| C32U C41A | 0.591 |
| C33U C86U | 0.928 |
| G6C | 0.294 |
| A43U G74C | 0.125 |
| G17A C66U | 0.607 |
| G6A C19A | 0.0346 |
